- Target of assay: DLG4_2, P78352
- Sequence (P78352 155-259): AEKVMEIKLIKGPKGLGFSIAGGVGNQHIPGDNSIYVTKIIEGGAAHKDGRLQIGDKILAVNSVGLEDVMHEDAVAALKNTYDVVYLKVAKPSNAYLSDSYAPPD
- Test summary: holdup assay
- Parameters: key: below the threshold = too weak to quantify, mostly under pKd 3.1 to 4
- Condition notes: plain residues with an end cap or a label only (N-terminal biotin on a linker: ado-ado)
Measure: pKd

Solved cases below.
THHRKIHTRV [ZNF599, Q96NL3] ... 5.64
PSVYSRSQYV [CLDN8, P56748] ... 3.79
FLVTEFNVML [DFNB31, Q9P202] ... below the threshold
WAKEKQHTRL [SLC17A1, Q14916] ... 4.04
NSTHNLKDYV [CLDN20, P56880] ... below the threshold
EFKQTSSFLV [JAM1, Q9Y624] ... 3.47
VKQYADVEGF [HNRNPK, P61978;P61978-2] ... below the threshold
LVEEEEPMNL [HDAC7, Q8WUI4] ... below the threshold

# map each binder to its pKd
1. SQDPKKPSRV [CBY2, Q8NA61]
2. HYPASPDSWV [CTNND2, Q9UQB3]
3. EAVTVESTSL [SLC22A11, Q9NSA0]
4. TFSRRPKTRV [CD226, Q15762]
5. NKSEPFLTWL [WWTR1, Q9GZV5]
6. ATKDKKITTV [EXOC4, Q96A65]
7. GQNMTVSVVI [PRLHR, P49683]
8. KKTPVSRSHL [SLC22A3, O75751]

### Response
1: 3.49; 2: 4.72; 3: 3.58; 4: 3.56; 5: 3.54; 6: 5.85; 7: below the threshold; 8: below the threshold
